Test: Solubility of posaconazole free base
Assay type: physicochemical
Conditions: simulated gastric fluid; environment of the stomach, approximately pH 1
Source text: The provision of a solid composition comprising posaconazole suitable for preparing a solid dosage form for oral administration has heretofore been hampered by the poor solubility and weak basicity of the posaconazole free-base compound. Posaconazole is soluble at low pH. […] It has been determined that in environments where the pH is about pH 6.4 or more basic the solubility of posaconazole free base is less than about 1 microgram/mL.

{"COMPOUND": "CC[C@@H]([C@H](C)O)n1ncn(-c2ccc(N3CCN(c4ccc(OC[C@@H]5CO[C@@](Cn6cncn6)(c6ccc(F)cc6F)C5)cc4)CC3)cc2)c1=O [posaconazole free base, posaconazole]", "solubility": "~800 µg/mL"}

src = patent US20150150990A1
